- Test system: Crude diglycosidase
- Experimental Details: Examination of temperature in the conversion into isoflavone aglycons by diglycosidase using soybean materials
- Format: biochemical, Penicillium multicolor IAM7153
- Parameters: concentration or dose not given beside the values
- Particulars: 35 °C; heat treatment of enzyme: yes; 6 h
Measurement Label: Decomposition efficiency of daidzin family in roasted soy flour

See these solved cases before continuing.
CC(=O)OC[C@H]1O[C@@H](Oc2ccc3c(=O)c(-c4ccc(O)cc4)coc3c2)[C@H](O)[C@@H](O)[C@@H]1O [acetyldaidzin, 6″-O-acetyldaidzin]    43.8%
O=c1c(-c2ccc(O)cc2)coc2cc(O)ccc12 [daidzein]    5.8%

Here's the next entry for you.
### Prompt What measured Decomposition efficiency of daidzin family in roasted soy flour goes with O=c1c(-c2ccc(O)cc2)coc2cc(O[C@@H]3O[C@H](CO)[C@@H](O)[C@H](O)[C@H]3O)ccc12 [daidzin] ?
### Response 50.3%
